TEST_SYSTEM: CYP2C19 (Homo sapiens)
Sequence (P33261 whole entry): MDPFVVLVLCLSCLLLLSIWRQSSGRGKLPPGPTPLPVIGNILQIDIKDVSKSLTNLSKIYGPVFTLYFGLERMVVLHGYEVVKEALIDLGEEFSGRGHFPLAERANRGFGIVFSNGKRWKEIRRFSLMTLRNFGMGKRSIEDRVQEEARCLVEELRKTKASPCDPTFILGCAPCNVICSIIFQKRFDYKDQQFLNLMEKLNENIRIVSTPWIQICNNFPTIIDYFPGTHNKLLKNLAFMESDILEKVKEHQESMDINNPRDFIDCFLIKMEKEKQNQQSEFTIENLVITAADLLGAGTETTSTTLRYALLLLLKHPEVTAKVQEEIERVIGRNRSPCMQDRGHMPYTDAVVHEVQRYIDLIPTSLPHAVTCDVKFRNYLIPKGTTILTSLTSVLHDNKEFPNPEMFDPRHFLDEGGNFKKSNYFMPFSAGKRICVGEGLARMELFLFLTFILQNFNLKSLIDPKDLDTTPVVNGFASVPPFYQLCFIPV
TEST_DESCRIPTION: Inhibition of recombinant human CYP2C19 expressed in baculovirus infected insect cell microsomes at 1 uM relative to control
Assay type: ADME
PARAMETER: inhibition at 1 µM (%)

(P) COc1cncc(Cc2cc(-c3ccccc3)no2)c1
(Q) Cc1cncc(Cc2cc(-c3ccccc3)no2)c1
Request: Hi! Which is lower in terms of inhibition at 1 µM, the first one P or the second one Q ? Response format: the label of the selected entry.
Response: Q
(Q: 8%, P: 17%)

###

TEST_SYSTEM: CYP2C9 (Homo sapiens, UniProt P11712)
Sequence (P11712 whole entry): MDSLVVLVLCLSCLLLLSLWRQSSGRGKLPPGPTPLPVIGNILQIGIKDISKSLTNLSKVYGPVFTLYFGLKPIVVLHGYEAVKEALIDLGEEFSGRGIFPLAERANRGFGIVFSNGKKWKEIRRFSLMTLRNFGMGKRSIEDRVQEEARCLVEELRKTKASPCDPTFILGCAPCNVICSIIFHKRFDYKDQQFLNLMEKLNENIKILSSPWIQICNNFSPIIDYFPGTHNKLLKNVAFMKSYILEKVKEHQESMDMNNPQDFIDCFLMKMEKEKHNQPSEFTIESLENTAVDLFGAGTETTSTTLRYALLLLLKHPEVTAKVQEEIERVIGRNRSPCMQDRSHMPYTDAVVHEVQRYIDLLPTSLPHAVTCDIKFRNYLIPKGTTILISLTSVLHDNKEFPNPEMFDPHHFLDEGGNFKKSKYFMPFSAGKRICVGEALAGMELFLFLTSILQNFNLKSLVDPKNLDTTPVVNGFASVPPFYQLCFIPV
TEST_DESCRIPTION: Inhibition of recombinant human CYP2C9 expressed in baculovirus infected insect cell microsomes at 1 uM relative to control
Type: ADME
PARAMETER: inhibition at 1 µM (%)

(a) COc1cncc(Cc2cc(-c3ccccc3)no2)c1
(b) Cc1cncc(Cc2cc(-c3ccccc3)no2)c1
Request: // compare: a vs b , metric inhibition at 1 µM, want the smaller Please reply using the label of the selected record.
Response: a

###

TEST_SYSTEM: Cytochrome P450 11B1, mitochondrial (Rattus norvegicus)
Sequence (P15393 whole entry): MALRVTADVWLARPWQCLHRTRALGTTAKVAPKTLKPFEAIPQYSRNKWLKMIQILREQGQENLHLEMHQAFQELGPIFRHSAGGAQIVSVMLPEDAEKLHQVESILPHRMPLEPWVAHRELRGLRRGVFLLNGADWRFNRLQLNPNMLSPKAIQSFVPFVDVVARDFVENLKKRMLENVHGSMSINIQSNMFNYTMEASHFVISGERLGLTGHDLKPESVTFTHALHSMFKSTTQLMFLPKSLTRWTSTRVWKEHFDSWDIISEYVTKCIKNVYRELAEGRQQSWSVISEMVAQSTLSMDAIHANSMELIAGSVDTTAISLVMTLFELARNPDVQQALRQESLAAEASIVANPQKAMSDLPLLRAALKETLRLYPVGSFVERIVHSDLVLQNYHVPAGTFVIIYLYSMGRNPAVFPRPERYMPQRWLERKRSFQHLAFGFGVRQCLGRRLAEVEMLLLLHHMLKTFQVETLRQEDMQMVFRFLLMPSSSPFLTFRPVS
TEST_DESCRIPTION: Inhibition of rat CYP11B1 expressed in hamster V79MZ cells using [1,2-3H]-11-deoxycorticosterone as substrate after 6 hrs by HPLC analysis
Format: cell-based
PARAMETER: IC50 (µM)

(I) COc1cncc(Cc2cc(-c3ccccc3)no2)c1
(II) Cc1cncc(Cc2cc(-c3ccccc3)no2)c1
Request: Returns the identifier with the smallest measured IC50 among I and II . When you have decided, please share the label of that item.
Response: I
(I: 1.8 µM, II: 4 µM)

###

TEST_SYSTEM: Cytochrome P450 11B2, mitochondrial (Homo sapiens)
Sequence (P19099 whole entry): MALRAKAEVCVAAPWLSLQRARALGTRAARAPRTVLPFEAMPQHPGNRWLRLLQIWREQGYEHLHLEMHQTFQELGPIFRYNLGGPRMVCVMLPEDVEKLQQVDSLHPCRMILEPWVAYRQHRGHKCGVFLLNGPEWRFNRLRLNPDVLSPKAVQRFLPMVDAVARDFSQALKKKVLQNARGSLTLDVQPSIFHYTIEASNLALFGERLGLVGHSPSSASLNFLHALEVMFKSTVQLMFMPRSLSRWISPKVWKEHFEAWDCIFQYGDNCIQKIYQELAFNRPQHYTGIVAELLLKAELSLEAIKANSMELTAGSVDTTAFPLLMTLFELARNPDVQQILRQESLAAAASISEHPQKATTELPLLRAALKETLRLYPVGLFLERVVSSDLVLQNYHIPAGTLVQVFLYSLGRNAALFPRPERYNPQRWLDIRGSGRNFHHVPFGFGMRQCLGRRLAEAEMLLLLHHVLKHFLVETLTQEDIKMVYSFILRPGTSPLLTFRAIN
TEST_DESCRIPTION: Inhibition of human CYP11B2 expressed in hamster V79MZ cells using [1,2-3H]-11-deoxycorticosterone as substrate after 6 hrs by HPLC analysis
pIC50: −log10 of the molar value.
PARAMETER: pIC50

The cases that follow already have their pIC50 on record.
compound_smiles=Cc1cncc(Cc2ccc(S(=O)(=O)c3ccccc3F)nc2)c1 value_measured=7.77
compound_smiles=Cc1cncc(Cc2cc(-c3ccccc3)ns2)c1 value_measured=8.10
compound_smiles=c1ccc(-c2nscc2Cn2ccnc2)cc1 value_measured=6.76
compound_smiles=Cc1cncc(Cc2cc(-c3ccccc3)no2)c1 value_measured=7.09
compound_smiles=Cc1cncc(Cc2ccc(-c3cnn(C)c3)nc2)c1 value_measured=6.74
compound_smiles=c1ccc(-c2cc(Cn3ccnc3)sn2)cc1 value_measured=6.92

(I) Cc1cncc(Cc2cc(-c3ccccc3)n[nH]2)c1
(II) Cc1cncc(Cc2ccc(NC3CC3)nc2)c1
Request: For this pair, I and II , which shows a numerically higher pIC50? Kindly give the label for the entry you pick.
Response: II
(II: 7.49, I: 6.23)

(1) Cc1cncc(Cc2ccc(-c3cccc(NS(C)(=O)=O)c3)nc2)c1
(2) Cc1cncc(Cc2cc(-c3ccccc3)nn2C)c1
(3) Cc1cncc(Cc2csnc2-c2ccccc2)c1
(4) c1ccc(-c2ncc(Cn3ccnc3)s2)cc1
(5) c1ccc(-c2cc(Cn3ccnc3)on2)cc1
Request: Put the items in order so that reported pIC50 rises from first to last. Answer format: list of labels, ordered as asked.
Response: 5, 4, 3, 1, 2

(A) Cc1cncc(Cc2cnc(-c3ccccc3)s2)c1
(B) c1ccc(-c2ncc(Cn3ccnc3)o2)cc1
Request: Hi team, can someone confirm which has the larger pIC50: A or B ? Thanks. Return value: the label identifying the chosen record.
Response: A
(A: 7.62, B: 6.28)

(a) Cc1cncc(Cc2ccc(Sc3ccccc3)nc2)c1
(b) Cc1cncc(Cc2ccc(S(=O)(=O)c3ccccc3)nc2)c1
Request: Between the two listed entries a and b , which has its pIC50 at the higher number? Identify your pick by its label.
Response: a

###

TEST_DESCRIPTION: Plasma concentration in Sprague-Dawley rat at 100 mg/kg, po administered as single dose after 4 hrs by HPLC-MS/MS analysis
Type: ADME, organism-based
PARAMETER: concentration at 4 h (µM)

(1) COc1cncc(Cc2cc(-c3ccccc3)no2)c1
(2) Cc1cncc(Cc2cc(-c3ccccc3)no2)c1
Request: // pick larger concentration at 4 h from pair: 1 vs 2 State the label of the item chosen.
Response: 1
(1: 106 µM, 2: 0.3 µM)

###

TEST_DESCRIPTION: Clearance in Sprague-Dawley rat at 5 mg/kg, iv administered as single dose by HPLC-MS/MS analysis
Format: ADME, organism-based
CONDITIONS_USED: in vivo
PARAMETER: clearance (mL/min/kg)
Give the value, in units of mL/min/kg, as a plain number.

Request: Request the reported clearance associated with COc1cncc(Cc2cc(-c3ccccc3)no2)c1
Response: 22.6

###

TEST_DESCRIPTION: Volume of distribution at steady state in Sprague-Dawley rat at 5 mg/kg, iv administered as single dose by HPLC-MS/MS analysis
Assay type: ADME, organism-based
CONDITIONS_USED: in vivo, read-out: Vdss
PARAMETER: Vd (L/kg)
Entry rule: numbers only, all in L/kg.

Request: Report Vd for COc1cncc(Cc2cc(-c3ccccc3)no2)c1 please.
Response: 3.1

###

TEST_DESCRIPTION: AUC (0 to infinity) in Sprague-Dawley rat at 5 mg/kg, iv administered as single dose by HPLC-MS/MS analysis
Format: ADME, organism-based
Set-up: dose 5 mg/kg, route intravenous, time infinity
CONDITIONS_USED: in vivo
PARAMETER: AUC(0-inf) (ng·h/mL)
I only need the number, in ng·h/mL, no unit after it.

Request: Any idea what AUC(0-inf) was measured for COc1cncc(Cc2cc(-c3ccccc3)no2)c1 ?
Response: 3680

###

TEST_SYSTEM: Cytochrome P450 11B1, mitochondrial (Homo sapiens, UniProt P15538)
Sequence (P15538 whole entry): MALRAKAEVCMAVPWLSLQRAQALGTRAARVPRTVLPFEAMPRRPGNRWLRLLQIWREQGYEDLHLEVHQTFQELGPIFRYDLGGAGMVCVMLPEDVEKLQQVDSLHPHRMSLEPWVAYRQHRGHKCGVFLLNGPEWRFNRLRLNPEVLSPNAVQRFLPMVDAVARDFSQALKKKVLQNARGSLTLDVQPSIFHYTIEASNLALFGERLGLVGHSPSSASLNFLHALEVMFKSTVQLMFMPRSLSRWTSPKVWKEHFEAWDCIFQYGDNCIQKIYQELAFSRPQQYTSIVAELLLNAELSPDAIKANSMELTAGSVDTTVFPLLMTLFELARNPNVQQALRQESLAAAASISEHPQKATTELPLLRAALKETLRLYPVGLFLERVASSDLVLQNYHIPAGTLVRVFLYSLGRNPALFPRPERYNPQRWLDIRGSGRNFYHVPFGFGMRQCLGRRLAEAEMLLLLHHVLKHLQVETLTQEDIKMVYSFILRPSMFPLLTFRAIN
TEST_DESCRIPTION: Inhibition of human CYP11B1 expressed in hamster V79MZ cells using [1,2-3H]-11-deoxycorticosterone as substrate after 6 hrs by HPLC analysis
PARAMETER: IC50 (nM)

// known answers, use as guide
compound_smiles=Cc1cncc(Cc2cnc(-c3ccccc3)s2)c1 parameter=IC50 unit_string=nM value_measured=9
compound_smiles=Cc1cncc(Cc2cc(-c3ccccc3)nn2C)c1 parameter=IC50 unit_string=nM value_measured=1
compound_smiles=Cc1cncc(Cc2ccc(-c3cnn(C)c3)nc2)c1 parameter=IC50 unit_string=nM value_measured=42
compound_smiles=Cc1cncc(Cc2cc(-c3ccccc3)no2)c1 parameter=IC50 unit_string=nM value_measured=5
compound_smiles=Cc1cncc(Cc2cnc(-c3ccccc3)o2)c1 parameter=IC50 unit_string=nM value_measured=14
compound_smiles=Cc1cncc(Cc2ccc(-c3ccoc3)nc2)c1 parameter=IC50 unit_string=nM value_measured=4
compound_smiles=Cc1cncc(Cc2ccc(-c3ccnn3C)nc2)c1 parameter=IC50 unit_string=nM value_measured=16
compound_smiles=Cc1cncc(Cc2ccc(S(=O)(=O)c3ccccc3)nc2)c1 parameter=IC50 unit_string=nM value_measured=20
compound_smiles=Cc1cncc(Cc2cc(-c3ccccc3)n[nH]2)c1 parameter=IC50 unit_string=nM value_measured=137
compound_smiles=c1ccc(-c2nscc2Cn2ccnc2)cc1 parameter=IC50 unit_string=nM value_measured=57

(A) Cn1c(Cn2ccnc2)cnc1-c1ccccc1
(B) Cc1cncc(Cc2ccc(-c3cccc(NS(C)(=O)=O)c3)nc2)c1
(C) c1ccc(-c2cc(Cn3ccnc3)sn2)cc1
(D) c1ccc(-c2ncc(Cn3ccnc3)o2)cc1
Request: Arrange by IC50, high to low. List the labels in the requested order.
Response: A, D, C, B
(A: 516 nM, D: 150 nM, C: 14 nM, B: 2 nM)

(P) COc1cncc(Cc2cc(-c3ccccc3)no2)c1
(Q) Cc1cncc(Cc2ccc(Sc3ccccc3F)nc2)c1
Request: Compare IC50: is it lower for P or for Q ? Answer = label.
Response: P

(a) Cc1cncc(Cc2ccc(NC3CC3)nc2)c1
(b) c1ccc(-c2ncc(Cn3ccnc3)s2)cc1
Request: Higher IC50 between a and b ? Give the chosen item's label as your response.
Response: b
(b: 62 nM, a: 4 nM)

(P) Cn1nc(-c2ccccc2)cc1Cn1ccnc1
(Q) Cc1cncc(Cc2ccc(Sc3ccccc3)nc2)c1
(R) c1ccc(-c2cc(Cn3ccnc3)on2)cc1
(S) Cc1cncc(Cc2ccc(N3CCOCC3)nc2)c1
Request: Arrange the 4 entries by IC50 so the values rise. State the ranking by listing the labels in the requested order.
Response: Q, S, P, R
(Q: 5 nM, S: 22 nM, P: 58 nM, R: 148 nM)

Sourced from ChEMBL document CHEMBL4014346
